- ASSAYED SYSTEM: sodium-proton exchanger of subtype 3 (NHE3) (Homo sapiens, UniProt P48764)
- Construct: expressed in transfected cells
- Sequence (P48764 26-834, species assumed): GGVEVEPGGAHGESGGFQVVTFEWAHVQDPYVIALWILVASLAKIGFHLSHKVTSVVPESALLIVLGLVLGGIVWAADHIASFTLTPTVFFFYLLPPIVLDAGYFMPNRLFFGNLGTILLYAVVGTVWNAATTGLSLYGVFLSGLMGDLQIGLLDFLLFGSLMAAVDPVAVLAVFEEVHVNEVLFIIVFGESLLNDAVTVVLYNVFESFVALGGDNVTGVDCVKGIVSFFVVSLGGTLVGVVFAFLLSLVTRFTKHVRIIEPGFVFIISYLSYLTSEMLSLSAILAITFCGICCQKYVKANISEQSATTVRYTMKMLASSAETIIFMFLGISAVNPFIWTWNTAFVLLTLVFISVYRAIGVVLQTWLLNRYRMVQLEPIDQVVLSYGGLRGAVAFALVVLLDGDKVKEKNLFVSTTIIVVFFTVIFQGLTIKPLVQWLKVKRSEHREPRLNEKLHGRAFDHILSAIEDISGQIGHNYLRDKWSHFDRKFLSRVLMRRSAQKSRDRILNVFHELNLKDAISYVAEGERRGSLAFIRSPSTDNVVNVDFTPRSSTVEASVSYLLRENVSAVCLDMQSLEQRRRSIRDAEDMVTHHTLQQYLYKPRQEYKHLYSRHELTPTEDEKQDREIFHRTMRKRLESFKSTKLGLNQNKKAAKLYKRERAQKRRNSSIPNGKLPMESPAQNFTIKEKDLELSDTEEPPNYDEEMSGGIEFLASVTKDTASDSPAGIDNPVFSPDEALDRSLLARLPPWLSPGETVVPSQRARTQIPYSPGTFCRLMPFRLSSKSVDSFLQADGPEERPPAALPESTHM
- PROTOCOL DESCRIPTION: Recovery of intracellular pH (pHi) after acidification in LAP1 cells stably expressing NHE3 (BCECF fluorescence, FLIPR)
- Assay type: cell-based
- ASSAY CONDITIONS: LAP1 cells stably expressing NHE3; pH recovery after acidification; range 1 is % inhibition at 10 μM; read-out: Activity range (inhibitory effect on NHE3)
pIC50: −log10 of the molar value.
Measured pIC50 of individual entries

COMPOUND	pIC50
CCc1ccc(O[C@@H]2c3ccccc3C[C@H]2N2CCC(N)C2)c(C(C)(C)C)c1 (mixture of isomers)	5.00 to 6.00
CS(=O)(=O)c1ccc(O[C@H]2c3cc(F)cc(Cl)c3C[C@@H]2N2CCCC2)cc1 (racemic)	5.00 to 6.00
N#Cc1ccc(O[C@H]2c3ccccc3CC[C@@H]2N2CCC[C@@H](N)C2)cc1F (racemic)	> 6.00
N[C@H]1CCCN([C@@H]2Cc3ccccc3[C@H]2Oc2cccc(CN3CCCCC3)c2)C1 (racemic)	5.00 to 6.00
NC(=O)c1cccc(O[C@@H]2c3ccccc3C[C@H]2N2CCC(N)C2)c1 (mixture of isomers)	5.00 to 6.00
COc1cccc(F)c1O[C@@H]1c2ccccc2C[C@H]1N(C)C1CCNCC1 (racemic)	5.00 to 6.00
CC(=O)Nc1cccc(O[C@H]2c3cc(Cl)cc(Cl)c3C[C@@H]2N2CC3CNCC3C2)c1 (mixture of isomers)	> 6.00

---

This listing pairs molecules with measured pIC50.
- ASSAYED SYSTEM: sodium-proton exchanger of subtype 3 (NHE3) (Homo sapiens, UniProt P48764)
- Construct: expressed in transfected cells
- PROTOCOL DESCRIPTION: Recovery of intracellular pH (pHi) after acidification in LAP1 cells stably expressing NHE3 (BCECF fluorescence, FLIPR)
- Type: cell-based
- ASSAY CONDITIONS: LAP1 cells stably expressing NHE3; pH recovery after acidification; range 1 is % inhibition at 10 μM; read-out: Activity range (inhibitory effect on NHE3)
pIC50: −log10 of the molar value.
READOUT LABEL: pIC50

MOLECULE	READOUT LABEL	OBSERVED MEASUREMENT
CS(=O)(=O)c1ccccc1O[C@H]1c2cc(Cl)cc(Cl)c2C[C@@H]1N1CCC[C@@H](N)C1	pIC50	> 6.00
Cn1ccn(-c2ccc(Cl)c(O[C@H]3c4cc(F)cc(F)c4C[C@@H]3N3CC[C@@H](O)C3)c2)c1=O	pIC50	5.00 to 6.00
Cc1nnc(C)n1-c1ccc(C(=O)O[C@H]2c3cc(Cl)cc(Cl)c3C[C@@H]2N2CC[C@@H](O)C2)c(Cl)c1	pIC50	5.00 to 6.00
N[C@@H]1CCCN([C@@H]2Cc3ccccc3[C@H]2Oc2cccc3[nH]ccc23)C1 (racemic)	pIC50	5.00 to 6.00
CS(=O)(=O)c1nccn1-c1ccc(O[C@H]2c3cc(Cl)cc(Cl)c3C[C@@H]2N2CC[C@@H](O)C2)c(F)c1	pIC50	> 6.00
CS(=O)(=O)c1ccc(O[C@H]2c3cc(Cl)cc(Cl)c3C[C@@H]2N2CCCN(CCO)CC2)cc1 (racemic) [Example 383]	pIC50	> 6.00
CN(C1CCNCC1)[C@@H]1Cc2ccccc2[C@H]1Oc1cccc(N2CCNCC2)c1 (racemic)	pIC50	5.00 to 6.00
NS(=O)(=O)c1ccc(O[C@H]2c3ccccc3C[C@@H]2N2CC[C@@H](CO)C2)cc1 (racemic)	pIC50	5.00 to 6.00
NS(=O)(=O)c1ccc(O[C@@H]2c3ccccc3C[C@H]2NCC2CCC2)c(F)c1 (racemic)	pIC50	> 6.00
Fc1ccc(O[C@H]2c3cc(Cl)cc(Cl)c3C[C@@H]2N2CCNCC2)c(-c2cc[nH]n2)c1	pIC50	> 6.00
Cc1nnc(C)n1-c1ccc(O[C@H]2c3cc(Cl)cc(F)c3C[C@@H]2N2CC[C@@H](O)C2)cc1	pIC50	> 6.00
NC(=O)c1cccc(O[C@@H]2c3ccccc3C[C@H]2N2CCC[C@H](N)C2)c1 (racemic)	pIC50	5.00 to 6.00
CN1CC(=O)N(c2ccc(Cl)c(O[C@H]3c4cc(Cl)cc(F)c4C[C@@H]3N3CC[C@@H](O)C3)c2)C1=O	pIC50	5.00 to 6.00
CC1(C)OC(=O)N(c2ccc(Cl)c(O[C@H]3c4cc(Cl)cc(Cl)c4C[C@@H]3N3CC[C@@H](O)C3)c2)C1=O	pIC50	5.00 to 6.00

---

- ASSAYED SYSTEM: sodium-proton exchanger of subtype 3 (NHE3) (Homo sapiens, UniProt P48764)
- Construct: expressed in transfected cells
- PROTOCOL DESCRIPTION: Recovery of intracellular pH (pHi) after acidification in LAP1 cells stably expressing NHE3 (BCECF fluorescence, FLIPR)
- Type: cell-based
- ASSAY CONDITIONS: LAP1 cells stably expressing NHE3; pH recovery after acidification; range 1 is % inhibition at 10 μM; read-out: Activity range (inhibitory effect on NHE3)
pIC50: −log10 of the molar value.

COMPOUND	pIC50
CC(C)c1nccn1-c1ccc(O[C@H]2c3cc(Cl)cc(Cl)c3C[C@@H]2N2CC[C@@H](O)C2)cc1	5.00 to 6.00
CS(=O)(=O)c1ccc(O[C@H]2c3cc(Cl)cc(Cl)c3C[C@@H]2N2CC[C@H](O)C2)cc1	> 6.00
CN1CCN([C@H]2Cc3c(Cl)cc(Cl)cc3[C@@H]2Oc2ccc(S(C)(=O)=O)cc2)CC1	5.00 to 6.00
CN1CCN(c2ccc(O[C@H]3c4cc(Cl)cc(Cl)c4C[C@@H]3N3CC[C@@H](O)C3)c(F)c2)C1=O	> 6.00
CCCC1(N)CCCN([C@H]2Cc3c(Cl)cc(Cl)cc3[C@@H]2Oc2cccc(NC(C)=O)c2)C1 (mixture of isomers)	> 6.00
O=C1CCC(=O)N1c1ccc(O[C@H]2c3cc(Cl)cc(Cl)c3C[C@@H]2N2CC[C@@H](O)C2)c(Cl)c1	> 6.00
CC1(C)NC(=O)N(c2ccc(Cl)c(O[C@H]3c4cc(Cl)cc(F)c4C[C@@H]3N3CC[C@@H](O)C3)c2)C1=O	5.00 to 6.00

---

- ASSAYED SYSTEM: sodium-proton exchanger of subtype 3 (NHE3) (Homo sapiens)
- Construct: expressed in transfected cells
- PROTOCOL DESCRIPTION: Recovery of intracellular pH (pHi) after acidification in LAP1 cells stably expressing NHE3 (BCECF fluorescence, FLIPR)
- Assay type: cell-based
- ASSAY CONDITIONS: LAP1 cells stably expressing NHE3; pH recovery after acidification; range 1 is % inhibition at 10 μM; read-out: Activity range (inhibitory effect on NHE3)
READOUT LABEL: IC50

COMPOUND	OBSERVED MEASUREMENT
CN(C1CCC1)[C@@H]1Cc2ccccc2[C@H]1Oc1ccc(S(C)(=O)=O)cc1 (racemic)	1000 to 10000 nM
Cc1cn(-c2ccc(O[C@H]3c4cc(Cl)cc(Cl)c4C[C@@H]3N3CC[C@@H](O)C3)c(F)c2)c(C)n1	< 1000 nM
NCC1CCN([C@@H]2Cc3ccccc3[C@H]2Oc2ccc(N3CCNCC3)cc2)CC1 (racemic)	1000 to 10000 nM
N#Cc1ccc(O[C@H]2c3ccccc3CC[C@@H]2N2CCC[C@H](N)C2)c(F)c1F (racemic)	1000 to 10000 nM
Cc1nnc(C)n1-c1ccc(O[C@H]2c3cc(Cl)cc(Cl)c3C[C@@H]2N2CC[C@H](O)C2)c(F)c1	< 1000 nM
O=C1COC(=O)N1c1ccc(O[C@H]2c3cc(Cl)cc(Cl)c3C[C@@H]2N2CC[C@@H](O)C2)c(Cl)c1	< 1000 nM
Nc1ccc2c(O[C@H]3c4ccccc4CC[C@@H]3N3CCC[C@H](N)C3)cccc2c1 (racemic)	1000 to 10000 nM
NCC1CCN([C@@H]2Cc3ccccc3[C@H]2Oc2ccc(-n3cncn3)cc2)C1 (mixture of isomers)	1000 to 10000 nM
N[C@@H]1CCCN([C@@H]2Cc3c(Cl)cc(Cl)cc3[C@H]2Oc2ccccc2)C1	1000 to 10000 nM
N[C@H]1CCCN([C@H]2CCc3ccccc3[C@@H]2Oc2cccc3[nH]nnc23)C1 (racemic)	< 1000 nM
NC(=O)c1cccc(O[C@@H]2c3ccccc3C[C@H]2N2C[C@H]3CNC[C@H]3C2)c1 (racemic)	1000 to 10000 nM
Cc1nnc(C)n1-c1ccc(O[C@@H]2c3ccccc3C[C@@]2(C)N2CCCC2)c(F)c1 (racemic)	1000 to 10000 nM
COCCN1CCCN([C@H]2Cc3c(Cl)cc(Cl)cc3[C@@H]2Oc2ccc(-c3c(C)noc3C)cc2)CC1	1000 to 10000 nM
CS(=O)(=O)c1ccc(O[C@H]2c3ccccc3C[C@@H]2NC2CCCC2)cc1 (racemic)	1000 to 10000 nM
CS(=O)(=O)c1ccc(OC2c3ccccc3CC2N2CCCC2)c(Cl)c1 (racemic)	< 1000 nM
N[C@H]1CCCN([C@@H]2Cc3ccccc3[C@H]2Oc2ccc(S(N)(=O)=O)c(Cl)c2Cl)C1 (racemic)	1000 to 10000 nM
Cc1nnc(C)n1-c1ccc(O[C@H]2c3cc(Cl)ccc3C[C@@H]2N2CC[C@@H](O)C2)c(F)c1	< 1000 nM
NCC1CCN([C@@H]2Cc3ccccc3[C@H]2Oc2ccc(F)cc2F)C1 (mixture of isomers)	1000 to 10000 nM
N[C@H]1CCCN([C@@H]2Cc3ccccc3[C@H]2Oc2ccc(-n3ccnc3)cc2)C1 (racemic)	1000 to 10000 nM
NS(=O)(=O)c1ccc(O[C@@H]2c3ccccc3C[C@H]2NC2CCCCCC2)c(F)c1 (racemic)	1000 to 10000 nM
CN(C)S(=O)(=O)c1ccc(N[C@H]2c3cc(Cl)cc(Cl)c3C[C@@H]2N2CC[C@@H](O)C2)cc1	1000 to 10000 nM
Cc1cc(O[C@@H]2c3ccccc3C[C@H]2N2CCC(CN)C2)cc(C)c1C#N (mixture of isomers)	1000 to 10000 nM
O=C1COC(=O)N1c1ccc(O[C@H]2c3cc(Cl)cc(Cl)c3C[C@@H]2N2CC[C@@H](O)C2)cc1	1000 to 10000 nM
CC(=O)Nc1cccc(O[C@H]2c3cc(Cl)cc(F)c3C[C@@H]2N2CCNCC2)c1 (racemic)	< 1000 nM
CC1(C)NC(=O)N(c2ccc(F)c(O[C@H]3c4cc(Cl)cc(F)c4C[C@@H]3N3CC[C@@H](O)C3)c2)C1=O	1000 to 10000 nM
CN1CCN(c2cccc(O[C@H]3c4cc(Cl)cc(Cl)c4C[C@@H]3N3CC[C@@H](O)C3)c2)C1=O	1000 to 10000 nM
Nc1cccc(O[C@@H]2c3ccccc3C[C@H]2N2CCCC2)c1 (racemic)	1000 to 10000 nM
N[C@@H]1CCCN([C@H]2Cc3c(Cl)cc(Cl)cc3[C@@H]2Oc2ccc(F)c3cccnc23)C1	< 1000 nM
NCC1CCN([C@@H]2Cc3ccccc3[C@H]2Oc2cccc(N3CCNCC3)c2)CC1 (racemic)	1000 to 10000 nM
